- Tested on: rodent lifetime carcinogenesis bioassay, tumor incidence TD50
- experimentalDetails: carcinogenic potency in animals, long-term in vivo studies, CPDB compilation (AID 1745844)
- experimentalConditions: mouse; strain B6C3F1; males; inhaled; site: liver; lesion: hepatocellular adenoma; dosed 104 weeks; study length 104 weeks
Calls of active or inactive are those of the source. No rule for the calls is given here.
In this section, each of the compounds is paired with its reported TD50.
testReadout: TD50

[
  {
    "compound": "CC(O)COC(C)(C)C (stereo not drawn)",
    "testReadout": "TD50",
    "reportedResult": "1970 mg/kg/day"
  },
  {
    "compound": "FCC(F)(F)F",
    "testReadout": "TD50",
    "reportedResult": "1.5e+06 mg/kg/day (inactive)"
  },
  {
    "compound": "C=CC(=C)Cl",
    "testReadout": "TD50",
    "reportedResult": "71.9 mg/kg/day"
  }
]

---

- Test system: rodent lifetime carcinogenesis bioassay, tumor incidence TD50
- experimentalDetails: carcinogenic potency in animals, long-term in vivo studies, CPDB compilation (AID 1745844)
- experimentalConditions: mouse; strain B6C3F1; females; by gavage; site: adrenal gland; lesion: pheochromocytoma; dosed 78 weeks; study length 90 weeks

[
  {
    "cpdSmiles": "ClCC(Cl)Cl",
    "target": "rodent lifetime carcinogenesis bioassay, tumor incidence TD50",
    "TD50": "248 mg/kg/day"
  }
]

---

- Tested on: rodent lifetime carcinogenesis bioassay, tumor incidence TD50
- experimentalDetails: carcinogenic potency in animals, long-term in vivo studies, CPDB compilation (AID 1745844)
- experimentalConditions: rat; strain Fischer 344; females; in drinking water; site: adrenal gland; lesion: cortical adenoma; dosed 104 weeks; study length 132 weeks

[
  {
    "cpdSmiles": "C=CC=O",
    "TD50": "93.9 mg/kg/day"
  }
]

---

- Tested on: rodent lifetime carcinogenesis bioassay, tumor incidence TD50
- experimentalDetails: carcinogenic potency in animals, long-term in vivo studies, CPDB compilation (AID 1745844)
- experimentalConditions: mouse; strain B6C3F1; males; in feed; site: liver; lesion: neoplastic nodule; dosed 80 weeks; study length 90 weeks

[
  {
    "cpdSmiles": "COP(=O)(OC)OC(=CCl)c1cc(Cl)c(Cl)cc1Cl",
    "TD50": "1770 mg/kg/day"
  }
]

---

- Tested on: rodent lifetime carcinogenesis bioassay, tumor incidence TD50
- experimentalDetails: carcinogenic potency in animals, long-term in vivo studies, CPDB compilation (AID 1745844)
- experimentalConditions: rat; strain Fischer; males; in feed; site: urinary bladder; lesion: carcinoma, invasive; dosed 77 weeks; study length 77 weeks
testReadout: TD50 (mg/kg/day)

[
  {
    "cpdSmiles": "O=CNc1nc(-c2ccc([N+](=O)[O-])o2)cs1",
    "testReadout": "TD50",
    "reportedResult": 18.1
  }
]

---

- Test system: rodent lifetime carcinogenesis bioassay, tumor incidence TD50
- experimentalDetails: carcinogenic potency in animals, long-term in vivo studies, CPDB compilation (AID 1745844)
- experimentalConditions: rat; strain Fischer 344; males; by gavage; site: liver; lesion: hepatocellular carcinoma; dosed 104 weeks; study length 105 weeks
testReadout: TD50 (mg/kg/day)

[
  {
    "compound": "CCCC(Cl)CCCC(Cl)CCC(Cl)CCC(Cl)CCC(Cl)CCCC(Cl)CCC (stereo unspecified)",
    "unitSpec": "mg/kg/day",
    "reportedResult": 551
  }
]
